Test system: LXFL 529
Experiment: NCI tumour cell line growth inhibition, 48 h
Active and inactive are the calls of the source. No stated cut-off is given here; in the data, active = GI50 up to about 1.1 µM and inactive = higher.
Classes used: yes (1) for active, no (0) for inactive

> print(dat)
                                   compound  tested.on  assigned.category
1                COC(=O)C(=O)Cc1nc2ccccc2s1   LXFL 529             no (0)
2  CN1C(=O)N(C)C(N2CCCC2)c2c1nc1ccccn1c2=O (configuration not stated)   LXFL 529             no (0)
3  CC(=O)OC1C/C(C)=C/[C@H](O)CC(C)/C=C/[C@@]2(C)CCC(C(C)(C)O)C12 (some centres not stated)   LXFL 529             no (0)
4  Nc1nc(-c2ccccc2)c(Cl)c(-c2cc(Cl)ccc2O)n1   LXFL 529             no (0)
5  Cc1c(/C=N/NS(=O)(=O)c2ccccc2)no[n+]1[O-]   LXFL 529             no (0)
6  CC12OC3CC(O1)C1(C=O)C4CCC5(C)C(c6ccc(=O)oc6)CCC5(O)C4CCC1(C3)O2 (configuration not stated)   LXFL 529            yes (1)
7                     CN(C)C(=N)NC(=S)N(C)C   LXFL 529             no (0)

---

Tested on: HCT-15
metric.name: GI50

molecule	tested.on	value
CC1(C)CCCC(C)(C2CCC3(C)C2C(O)CC2C4(C)CCC(O)C(C)(C)C4CCC23C)O1 (centres undefined)	HCT-15	> 100 µM
CCC1(O)CC(OC2CC(N(C)C)C(OC3CC(O)C(OC4CCC(=O)C(C)O4)C(C)O3)C(C)O2)c2c(cc3c(c2O)C(=O)c2c(O)ccc(O)c2C3=O)C1C(=O)OC (centres undefined)	HCT-15	< 0.01 µM
CC(=O)Nc1ccc(S(=O)(=O)c2nnc(NC(C)=O)s2)cc1	HCT-15	> 100 µM
Clc1ccc(-c2nnc(-c3cccc4ccccc34)o2)cc1Cl	HCT-15	> 100 µM

---

System: COLO 205
Assay: NCI tumour cell line growth inhibition, 48 h
Calls of active or inactive are those of the source. Cut-off read from the data, not from the text of the source: active = GI50 up to about 1.1 µM and inactive = higher.
Listed here: items and their measured GI50.
metric.name: GI50

> print(dat)
                                   compound                value
1  OC12CCC3(O)c4ccccc4C3C1c1ccccc12 (stereo unspecified)  > 100 µM (inactive)
2  O=C1C=CC(=O)c2c1ccc1c3ccccc3n(CCCCCn3c4ccccc4c4ccc5c(c43)C(=O)C=CC5=O)c21   15.2 µM (inactive)
3  Cc1ccc(-c2c(C#N)c(-c3ccc([N+](=O)[O-])cc3)c(C#N)c(=O)n2NS(=O)(=O)c2ccc(C)cc2)cc1   80.4 µM (inactive)
4  ClC1(Cl)C2CCOC21n1cnc2ccccc21 (stereo unspecified)  > 100 µM (inactive)
5                         CCc1n[nH]c(=O)n1O  > 100 µM (inactive)
6  CCSc1c(C)c2c(n(Cc3ccc(OC)cc3)c1=O)Cc1ccccc1C2   35.6 µM (inactive)

---

Test system: SF-268
Assay: NCI tumour cell line growth inhibition, 48 h
Activity calls are given as the source filed them. Cut-off read from the data, not from the text of the source: active = GI50 up to about 1.1 µM and inactive = higher.
metric.name: GI50

> print(dat)
                                   compound                value
1  COc1cc(C)c(/C=C/C(=O)N2C(=O)OC[C@@H]2c2ccccc2)c(C)c1  > 100 µM (inactive)
2                COC(=O)C(=O)Cc1nc2ccccc2s1  > 100 µM (inactive)
3  CC(=O)OC1C2CCC1C1C2N=NN1c1ccc([N+](=O)[O-])cc1 (centres undefined)  > 100 µM (inactive)
4  COc1cc(Oc2c(C)c(Cl)c(OC)c(Cl)c2OC)c2c(c1Cl)COC2=O   21.8 µM (inactive)

---

System: HOP-62
Assay: NCI tumour cell line growth inhibition, 48 h
Calls of active or inactive are those of the source. No stated cut-off is given here; in the data, active = GI50 up to about 1.1 µM and inactive = higher.
Classes used: yes (1) for active, no (0) for inactive

molecule	tested.on	assigned.category
O=C(Nc1ccccc1)c1cc2c(cc1Cl)SC(NNCCO)=NS2(=O)=O	HOP-62	no (0)
COc1cccc(/C=C2\C(=O)N(C(=O)c3ccc(NC(C)=O)cc3)N=C2C)c1	HOP-62	no (0)
CCN(CC(=O)O)CC(=O)O	HOP-62	no (0)
COCN1COCN/C1=N\C#N	HOP-62	no (0)
O=C(O)Cn1cc([N+](=O)[O-])c(=O)c2ccccc21	HOP-62	no (0)
CC1C(=O)OC2CC[N+]3([O-])CC=C(COC(=O)C(C)(O)C1(C)O)C23 (stereo not given)	HOP-62	no (0)
Oc1ccc(/C=N/c2nccs2)c(O)c1	HOP-62	no (0)
CN(C)c1ccc(/C=C2\N=C(N/N=C/c3ccc(N(C)C)cc3)NC2=O)cc1	HOP-62	no (0)
CC(C)CC1C(=O)OC(C)(C)OC1=O	HOP-62	no (0)
O=C1OC(c2ccccc2)=N/C1=C\c1ccc(N(CCCl)CCCl)cc1	HOP-62	no (0)
COc1ccc2nc3c(C(=O)NCCN(C)C)cccc3nc2c1	HOP-62	no (0)
COc1ccc(N2CN(C)CSC2=S)cc1	HOP-62	no (0)
CCN(CC)CCSc1c(C(C)=O)c(=O)n(-c2ccccc2)c(=S)n1-c1ccccc1	HOP-62	no (0)
COC(=O)C1=C(C)NC(C)=C(C(=O)OC)C1c1ccc(/[N+]([O-])=C/c2ccccc2)cc1	HOP-62	no (0)
CN1C(=O)N(C)C(N2CCCC2)c2c1nc1ccccn1c2=O (stereo not given)	HOP-62	no (0)
COc1cc2ccc3c4cc(OC)c(OCc5ccccc5)cc4cnc3c2cc1OC	HOP-62	no (0)
N#CCCN(CCC#N)c1ccc(C(=N/c2ccc(F)cc2)/N=N/c2ccc(Cl)cc2)cc1	HOP-62	no (0)
CC(=O)N1C(NN(C)C)CCN1c1ccccc1 (stereo not given)	HOP-62	no (0)
NC(Cc1ccccc1)C(=O)N[C@H]1c2ccsc2/C(=N/O)[C@H]1O (stereo not given in full)	HOP-62	no (0)
CCOC(=O)C(=O)NNc1nc2c(s1)C(=O)c1ccccc1C2=O	HOP-62	no (0)
Cc1nc(-c2ccccc2)c(-c2ccccc2)s1	HOP-62	no (0)
CN(C)CCn1c(=O)c2ccc(NCCCN(C)CCCNc3ccc4c(=O)n(CCN(C)C)c(=O)n5c6ccc([N+](=O)[O-])cc6c(=O)c3c45)c3c(=O)c4cc([N+](=O)[O-])ccc4n(c1=O)c23	HOP-62	yes (1)
c1ccc2c(c1)[nH]c1c2ncc2[nH]c3ccccc3c21	HOP-62	no (0)
O=C1C(=C(C(F)(F)Cl)C(F)(F)Cl)C2CCC1C2 (stereo not given)	HOP-62	no (0)
COc1cc(OC)c2c(=O)c3cccc(C)c3n(C)c2c1	HOP-62	no (0)
Cc1c[n+]([O-])c2ccccc2[n+]1[O-]	HOP-62	no (0)
COC(C(=O)C(O)C(C)O)C1CC2C=C3C=C(OC4CC(OC5CC(O)C(OC)C(C)O5)C(OC(C)=O)C(C)O4)C(C)C(O)=C3C(O)=C2C(=O)C1OC1CC(OC2CC(OC3CC(C)(O)C(OC(=O)C(C)C)C(C)O3)C(O)C(C)O2)C(O)C(C)O1 (stereo not given)	HOP-62	yes (1)
ClC1(Cl)C2CCOC21n1cnc2ccccc21 (stereo not given)	HOP-62	no (0)
NS(=O)(=O)c1ccc(NNc2c3ccccc3nc3ccccc23)cc1	HOP-62	no (0)
O=C1c2cccc(O)c2C(=O)c2cccc(O)c21	HOP-62	no (0)

---

System: SF-268
Test: NCI tumour cell line growth inhibition, 48 h
Activity calls are given as the source filed them. No stated cut-off is given here; in the data, active = GI50 up to about 1.1 µM and inactive = higher.
Classes used: yes = active, no = inactive

molecule	assigned.category
CN1CCN(C(=O)c2cn(Cc3cncn3Cc3ccc4c(c3)OCO4)cc2-c2cccc3ccccc23)CC1	no
N#CC1=C(c2ccccc2)NNC(c2ccc(Cl)cc2)CC1=O (stereo unspecified)	no
CCCCCCCCCOCC(COP(=O)([O-])OCC[N+](C)(C)C)OC (stereo unspecified)	no
N#C/N=C(/N)NCc1ccccc1	no
Cc1ccc(C2(O)CC(c3ccc([N+](=O)[O-])o3)=NN2C(=O)COc2ccccc2Cl)cc1 (stereo unspecified)	no
CC(C)N(Cc1ccccc1)S(=O)(=O)c1nc(C(C)(C)C)n[nH]1	no
C=C(C)[C@@H]1CC[C@@H](C)[C@](O)([C@@H]2C[C@@H]([C@H](COC(=O)c3ccccc3)OC(=O)c3ccccc3)OC2=O)C1	no
COc1ccc(-c2c3ccccc3c(-c3ccc(OCCCCCBr)cc3)c3ccccc23)cc1	no
CCOC(=O)C1OC(C2(C)OC3(OC4(C=CC3O)OC(C(C)C(=O)C(C)C(O)C(C)CC(C)c3c(Cl)cc(C)c(O)c3C(=O)O)C(C)CC4C)C(C)C2OC)CC1O (stereo unspecified)	yes
CCOc1ccccc1NC(=O)CCc1nnc2s/c(=C\CCc3ccccc3)c(=O)n12	no
O=C1CNC(=O)N1 [HYDANTOIN]	no
